B1: Pistol ribozyme (parent)
chain: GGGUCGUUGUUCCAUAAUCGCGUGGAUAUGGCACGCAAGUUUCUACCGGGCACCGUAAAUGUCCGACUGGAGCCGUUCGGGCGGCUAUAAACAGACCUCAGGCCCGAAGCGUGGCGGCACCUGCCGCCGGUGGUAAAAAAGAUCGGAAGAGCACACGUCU

Variants of: B1
method: aptazyme ON/OFF ratio, guanine; higher = stronger switching; co-transcriptional cleavage with and without guanine
Measured aptazyme ON/OFF ratio by item

variant.designation	aptazyme ON/OFF ratio
U7A U8A G9A U10G U11G C12G C13U	1.44
U8C G9C U10A C12G C13G	1.15
U7A U11G C12A C13A	1.15
U7C G9U U11C C12U C13U	1.13
U8G G9C U11A C12U C13U	1.1
U8A G9U U10G U11G C12U C13G	1.21
U7A U8A G9C U11C C12U C13U	1.08
U7C U8G G9A U10G U11G C12A	1.33
U7A U8G G9C U10C C13A	1.09
U7A G9U U10G U11G C13G	1.17
U7G U8G G9C C12U C13A	1.11
U7A U8G G9A U10G U11A C12G C13G	1.11
U7A G9U U10G U11A C12G C13A	1.41
U7C U8C U10C C12A C13G	1.14
U7A U8G G9U U10A U11A C13U	1.39
U7C U8A G9A U10G U11C C12G C13U	1.25
U7C G9A U11A C12A	1.38
U7A G9A C12G C13A	1.12
U7C G9C C13U	1.01
U7G U8G G9C U10G C12U C13U	1.09
U7C G9A U10C U11A C12U C13G	1.22
U7C U8A U10A U11G C12A C13G	1.17
U8G U10A U11A C12A C13G	1.11
U7G G9A U10C C13U	1.44
U8G G9U U11G C13G	1.04
U7C U8A G9C U10C C12G	1.03
U8C G9C U10G U11A C13A	1.13
U8G G9A U10G U11G C12U C13G	1.46
U8A G9C U10G C12G C13U	1.2
U7G G9U U10A C13U	1.35
U8C G9C U10A U11G C12G C13A	1.19
U7G U10C C13G	1.04
U8C G9A U10A C13A	1.17
U8A G9C U10C C12U C13A	1.04
U8G G9C U10G U11G	1.2
U7G U8A U10C U11C C13U	1.01
U8A G9C U10G C12A C13A	1.19
U7A U8A G9C U10C U11A C12G	1.06
U7C U8C G9U U10G U11C C12U C13G	1.09
U7G U8A G9U U10A U11A C12G	1.05
U7C G9C U11G C12U C13U	1.21
U7G U8A G9A U11A C12G C13G	1.09
U7A U8C G9U U10C U11A C13A	1.1
G9A U10A U11C C12G C13U	1.41
U7A G9A U10A U11C C13G	1.1
U8A C13U	1.43
U7C U8C U10A U11C C12G C13G	1.22
U7A U8G U11C C12A C13G	1.12
U7G G9A U10A U11C C12A	1.24
U7G U8A U10A U11A C12G C13A	1.14
U8A G9U U11A C12G C13A	1.32
U7G U8G U10C U11C C13U	1.12
U7G U8C G9A U10C U11C C12U C13U	1.06
U7A G9C C13U	1.12
U7A U8A G9A U10C U11G C12A	1.12
U7G U8G G9U U10G U11G C12G C13G	1.06
U7C U8G G9U C12G	1.78
U7A U8G G9A U11C C12U C13U	1.46
U8A G9U U10A U11G C12A	1.07
U7G U8G U10G U11G	1.39

Values were extracted from the RNAGym collection of RNA variant scans (doi:10.1021/acssynbio.7b00057).
